Response field class: string, computed from recorded melting point by ranges 1: < 70 °C; 2: ≥ 70 °C and < 100 °C; 3: ≥ 100 °C

Ask: Textbook exercise: identify the category of the molecule given here, CC1(C)C2CC3C(C2)C31C , according to its measured value.
Reply: 1

Ask: Textbook exercise: identify the category of the molecule given here, C=CCNC(=O)C(C(F)(F)F)C(F)(F)F , according to its measured value.
Reply: 3

Ask: Textbook exercise: identify the category of the molecule given here, COc1ccc(C(=NCc2ccccc2)c2ccc(OC)cc2)cc1 , according to its measured value.
Reply: 2

Ask: Textbook exercise: identify the category of the molecule given here, CCCCCCCCN(C)C , according to its measured value.
Reply: 1

Ask: Textbook exercise: identify the category of the molecule given here, COc1ccc(C(=O)c2cccc(C)c2)cc1OC , according to its measured value.
Reply: 2

Ask: Textbook exercise: identify the category of the molecule given here, c1cnc2ncncc2n1 , according to its measured value.
Reply: 3

Ask: Textbook exercise: identify the category of the molecule given here, O=S1(=O)OC(c2ccc(O)cc2)(c2ccc(O)cc2)c2ccccc21 , according to its measured value.
Reply: 3

Ask: Textbook exercise: identify the category of the molecule given here, Nc1ncnc2c1ncn2C1CCC(CO)O1 (stereo not drawn) , according to its measured value.
Reply: 3

Ask: Textbook exercise: identify the category of the molecule given here, O=S1(=O)CC(Br)C(Br)C1 (stereo not drawn) , according to its measured value.
Reply: 3

Ask: Textbook exercise: identify the category of the molecule given here, S=C=Nc1cc(Cl)cc(Cl)c1 , according to its measured value.
Reply: 1

Ask: Textbook exercise: identify the category of the molecule given here, Nc1cc(C(F)(F)F)c(F)cc1Br , according to its measured value.
Reply: 1
